Record type: MIC measurement. Applies to: Candida tropicalis IFO 10241

{"Molecule": "COc1cc(O)c2c(c1)C(=O)c1c(cc3c(c1O)-c1c(cc(C)c(C(=O)N[C@H](C)C(=O)O)c1O)[C@H](O[C@@H]1O[C@H](C)[C@H](N(C)N=O)[C@H](O[C@@H]4OC[C@@H](O)[C@H](O)[C@H]4O)[C@H]1O)[C@H]3O)C2=O [KHM-6, 4'-N-Nitrosopradimicin A]", "Result unit": "µg/mL", "Value operator": "=", "MIC": 12.5}
{"Molecule": "CN[C@@H]1[C@H](O[C@@H]2OC[C@@H](O)[C@H](O)[C@H]2O)[C@@H](O)[C@H](O[C@H]2c3cc(C)c(C(=O)N[C@H](C)C(=O)O)c(O)c3-c3c(cc4c(c3O)C(=O)c3cc(OC)cc(O)c3C4=O)[C@@H]2O)O[C@@H]1C [Pradimicin A, reference compound]", "Result unit": "µg/mL", "Value operator": ">", "MIC": 100}

Sourced from patent US6281342A
